pIC50 values, listed per item
# ASSAY TARGET: recombinant human Myt1 (full length PKMYT1) (Homo sapiens, UniProt Q99640)
# Sequence (Q99640 1-499): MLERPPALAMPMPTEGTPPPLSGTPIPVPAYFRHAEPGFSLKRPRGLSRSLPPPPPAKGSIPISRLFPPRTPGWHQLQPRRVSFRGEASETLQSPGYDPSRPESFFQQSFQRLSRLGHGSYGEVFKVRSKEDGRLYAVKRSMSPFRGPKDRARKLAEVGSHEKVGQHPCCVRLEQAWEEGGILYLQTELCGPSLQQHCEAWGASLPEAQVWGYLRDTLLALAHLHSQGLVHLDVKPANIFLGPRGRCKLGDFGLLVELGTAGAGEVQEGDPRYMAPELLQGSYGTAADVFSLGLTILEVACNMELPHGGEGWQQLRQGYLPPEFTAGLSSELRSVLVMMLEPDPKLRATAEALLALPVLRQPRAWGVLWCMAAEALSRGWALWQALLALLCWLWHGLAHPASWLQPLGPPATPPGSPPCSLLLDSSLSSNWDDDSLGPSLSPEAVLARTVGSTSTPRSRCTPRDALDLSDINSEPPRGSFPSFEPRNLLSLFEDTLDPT
# PROCEDURE DETAILS: ADP-Glo assay (Myt1 kinase activity)
pIC50: −log10 of the molar value.
MEASURE: pIC50

COMPOUND | ASSAY TARGET | QUAL | NUMERIC VALUE
Cc1cc2[nH]c(=O)c(N)c(-c3ccc(Cl)c4[nH]ncc34)c2nc1C [Example 159] | recombinant human Myt1 (full length PKMYT1) (Homo sapiens, UniProt Q99640) | > | 8.00
Cc1c(C#N)cnc2c(-c3ccc(F)c4[nH]ncc34)c(N)c(=O)[nH]c12 [Example 118] | recombinant human Myt1 (full length PKMYT1) (Homo sapiens, UniProt Q99640) | = | 7.75
Cc1cc2[nH]c(=O)c(N)c(-c3ccc(F)c4[nH]ncc34)c2cc1C1CCN(CC(F)(F)F)CC1 [Example 106] | recombinant human Myt1 (full length PKMYT1) (Homo sapiens, UniProt Q99640) | = | 7.84
Cc1cc2[nH]c(=O)c(N)c(-c3ccc(F)c4[nH]ncc34)c2nc1C1CN(C)C1 [Example 098] | recombinant human Myt1 (full length PKMYT1) (Homo sapiens, UniProt Q99640) | = | 7.73
N#Cc1nc(C2CC2)cc2[nH]c(=O)c(N)c(-c3ccc(F)c4[nH]ncc34)c12 [Example 167] | recombinant human Myt1 (full length PKMYT1) (Homo sapiens, UniProt Q99640) | = | 7.84
CCc1nc2c(-c3ccc(F)c4[nH]ncc34)c(N)c(=O)[nH]c2cc1C [Example 157] | recombinant human Myt1 (full length PKMYT1) (Homo sapiens, UniProt Q99640) | = | 7.81
Cc1c(C2CC2)ncc2c(-c3ccc(F)c4[nH]ncc34)c(N)c(=O)[nH]c12 [Example 165] | recombinant human Myt1 (full length PKMYT1) (Homo sapiens, UniProt Q99640) | > | 8.00
Cc1cc2[nH]c(=O)c(N)c(-c3ccc(F)c4[nH]ncc34)c2nc1C#CC1COCC1O (centres unmarked) [Example 073] | recombinant human Myt1 (full length PKMYT1) (Homo sapiens, UniProt Q99640) | = | 7.85

Where these numbers come from: patent US20260078122A1
